Test system: Sam68 (KHDRBS1)
assay-info: Sam68 small-molecule binders, primary screen, biochemical, small-molecule microarray, 635 nm fluorescence (AID 1125);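 also: score merges 667 nm channel intensity with signal to noise over triplicate slides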
measurement-setup: small-molecule microarray binding, higher = more signal
composite z-score overview
reported-endpoint: composite z-score

compound=COC(=O)C(CC#Cc1ccc2c(c1)[C@]1(C(=O)N2)[C@H](C(=O)O)[C@H]2C(=O)O[C@H](c3ccccc3)[C@H](c3ccccc3)N2[C@@H]1c1ccc(O)cc1)C(=O)OC reported_endpoint="composite z-score" experimental_value=0.661
compound=COc1ccc(C#Cc2ccc3c(c2)[C@]2(C(=O)N3)[C@H](c3ccccc3OCCO)N3[C@H](c4ccccc4)[C@H](c4ccccc4)OC(=O)[C@H]3[C@@H]2C(=O)O)cc1 reported_endpoint="composite z-score" experimental_value=1.3
compound="CC1CC/C=C\\[C@H]2OC34C=CCN(C(C)(C)C)C(=O)[C@H]3N(CCCCCCO)C(=O)[C@@H]4C2C(=O)O1 (some centres undefined)" reported_endpoint="composite z-score" experimental_value=-0.281
compound=CCOC(=O)[C@H]1C/C=C/C[C@H](C(=O)OCC)C(=O)O[C@H]2[C@@H](OC)O[C@H](CO)[C@@H](OC(=O)Nc3cccc(F)c3)[C@@H]2OC1=O reported_endpoint="composite z-score" experimental_value=1.19
compound="CCOC(=O)C1=CCC(c2ccc(C)cc2)N(S(=O)(=O)c2ccc(C)cc2)C1 (centres undefined)" reported_endpoint="composite z-score" experimental_value=0.747
compound="CN1C(=O)C2C=CC(C(O)C3=C[C@H]4C[C@@H](C3)C4(C)C)N(Nc3ccccc3)C2C1=O (some centres undefined)" reported_endpoint="composite z-score" experimental_value=1.31
compound=CN(C)C(=O)[C@]1(Cc2ccccc2CN=[N+]=[N-])N=C(c2ccc(OCCCO)cc2)O[C@@H]1c1ccccc1CN=[N+]=[N-] reported_endpoint="composite z-score" experimental_value=1.32
compound="O=C1OCCC/C=C\\[C@H]2OC34C=CCN(Cc5ccccc5)C(=O)[C@H]3N(CCCCCCO)C(=O)[C@@H]4C12 (some centres undefined)" reported_endpoint="composite z-score" experimental_value=0.139
compound=C=C(CCCC)/C(=C/C[C@@H](OC(C)=O)c1ccccc1OCCO)c1cnc2ccccc2c1 reported_endpoint="composite z-score" experimental_value=0.97
compound=CN(C)CCCC[C@@H]1NC(=O)[C@H]2C[C@@H](C(=O)NCCCCCNC(=O)CS)[C@@H](c3cccc(OCCO)c3)N2C1=O reported_endpoint="composite z-score" experimental_value=1.03
compound=COc1cc2c(cc1OC)CN(C(=O)[C@H]1[C@@H]3C(=O)O[C@@H](c4ccccc4)[C@@H](c4ccccc4)N3[C@@H](c3ccc(O)cc3)[C@]13C(=O)Nc1ccc(C#CC4=CCCCC4)cc13)CC2 reported_endpoint="composite z-score" experimental_value=1.31
compound="CC(CO)N1C(=O)[C@@H]2C3C(=O)OCCC/C=C\\[C@H]3OC23C=CCN(c2ccc4ccccc4c2)C(=O)[C@@H]13 (some centres undefined)" reported_endpoint="composite z-score" experimental_value=-0.704
compound=C=CC[C@]1(C(=O)NCCCOC)N=C(c2ccc(OCCCO)cc2)O[C@H]1c1ccccc1N=[N+]=[N-] reported_endpoint="composite z-score" experimental_value=1.31
compound="O=C1C2C=CC(C(O)C3CCCCC3)N(Nc3ccc([N+](=O)[O-])cc3)C2C(=O)N1c1ccccc1 (centres undefined)" reported_endpoint="composite z-score" experimental_value=1.29

====

target-or-system: Alpha-bungarotoxin (Bungarus multicinctus)
assay-info: alpha-bungarotoxin binders on microarray, profiling panel, artefact control for SMM control protein annotation, biochemical, small-molecule microarray, Alexa647 label, 635/667 nm fluorescence (AID 1117)
measurement-setup: alpha-BTX-A647 binding fluorescence, higher = more signal
Kind request: treat 1 as inclusive, so composite z-score at 1 or higher is label 1, anything lower is label 0.

compound=COc1ccc([Si](C)(C)[C@H]2[C@H](CCO)O[C@@]3(C(=O)N(C)c4c(Br)cc(C)cc43)[C@@H]2C)cc1 class_label="label 0"
compound=CO[C@H]1O[C@H](CO)[C@@H](OC(=O)Nc2ccc(Br)cc2)[C@H](OC(=O)c2cc3ccccc3[nH]2)[C@H]1OC(=O)c1cc2ccccc2[nH]1 class_label="label 0"
compound=COc1ccc(CCN2C(=O)[C@@]3(Cc4ccccc42)c2ccccc2C(=O)N(Cc2ccccc2C(F)(F)F)[C@H]3c2ccc(CO)cc2)cc1 class_label="label 0"
compound=COc1ccc([Si](C)(C)[C@H]2[C@H](CCn3cc([C@H](O)c4ccccc4)nn3)O[C@@]3(C(=O)N(Cc4cccc(N5CCOC5=O)c4)c4ccccc43)[C@@H]2C)cc1 class_label="label 0"
compound="CCN(CC)c1ccc(N2CC=CC34O[C@@H]5/C=C\\CCCOC(=O)C5[C@H]3C(=O)N(CCO)[C@@H]4C2=O)cc1 (some centres not stated)" class_label="label 0"
compound="[N-]=[N+]=NCc1ccccc1C[C@@]1(C(=O)NCC(O)CO)N=C(c2ccc(OCCCO)cc2)O[C@@H]1c1ccccc1N=[N+]=[N-] (some centres not stated)" class_label="label 0"
compound=C=C(COC)/C(=C/C[C@@H](OC(C)=O)c1ccc(CO)o1)c1cnc2ccccc2c1 class_label="label 1"
compound="CC(C)(C)OC(=O)CC[C@]1(C(=O)NCC(O)CO)COC(c2ccc(OCCCO)cc2)=N1 (some centres not stated)" class_label="label 1"
compound=COCCOC(=O)N1C(=O)[C@@]2(c3cc(C#CC4=CCCCC4)ccc31)[C@H](c1ccc(O)cc1)N1[C@H](c3ccccc3)[C@H](c3ccccc3)OC(=O)[C@H]1[C@@H]2C(N)=O class_label="label 1"
compound="CN1C(=O)C2C=CC(C(O)c3cccs3)N(Nc3ccccc3)C2C1=O (configuration not stated)" class_label="label 0"
compound=C[N+](C)(C)CCCCNC(=O)[C@H]1C[C@H]2C(=O)N[C@@H](Cc3ccccc3)C(=O)N2[C@H]1c1ccc(O)cc1 class_label="label 1"
compound="O=C1OCCC=C[C@H]2OC34C=CCN(CCN5CCOCC5)C(=O)[C@H]3N(CCCCCCO)C(=O)[C@@H]4C12 (some centres not stated)" class_label="label 0"
compound=C=CC[C@@]1(C(=O)N(C)C)N=C(c2ccc(OCCCO)cc2)O[C@@H]1c1ccccc1N=[N+]=[N-] class_label="label 1"
compound=C=C(CCCC)C(=O)CC[C@H](OC(C)=O)c1cccc(OCCO)c1 class_label="label 0"
compound=O=C1c2ccccc2[C@](Cc2ccccc2I)(C(=O)NC2CC2)[C@H](c2ccc(CO)cc2)N1C1CCCCC1 class_label="label 1"
compound=O=C(NCC(F)(F)F)[C@@H]1c2ccccc2C(=O)N(C2CCCCC2)[C@H]1c1ccc(CO)cc1 class_label="label 1"
compound=CCCCCCC#C[Si](O[C@H](c1ccccc1)c1cn([C@H](CO)Cc2ccccc2)nn1)(C(C)C)C(C)C class_label="label 0"
compound=[N-]=[N+]=NCc1ccccc1[C@@H]1OC(c2ccc(OCCCO)cc2)=N[C@]1(Cc1ccccc1N=[N+]=[N-])C(=O)N1CCOCC1 class_label="label 1"
compound="N#Cc1ccc(NN2C(C(O)c3c(F)cccc3Cl)C=CC3C(=O)N(c4ccccc4)C(=O)C32)cc1 (configuration not stated)" class_label="label 1"
compound=NC(=O)[C@@H]1[C@H]2C(=O)O[C@H](c3ccccc3)[C@H](c3ccccc3)N2[C@H](c2ccc(O)cc2)[C@@]12C(=O)Nc1ccc(C#CC3(O)CCCCCC3)cc12 class_label="label 0"
compound=C=CCOC(=O)[C@H]1[C@@H]2C(=O)O[C@@H](c3ccccc3)[C@@H](c3ccccc3)N2[C@@H](c2ccc(OCCOC(=O)[C@H]3C[C@H]4C(=O)N5CCC[C@H]5C(=O)N4[C@H]3c3ccc(O)cc3)cc2)[C@]12C(=O)Nc1ccccc12 class_label="label 0"
compound=O=C1O[C@@H](c2ccccc2)[C@@H](c2ccccc2)N2[C@@H](c3ccccc3OCCO)[C@]3(C(=O)Nc4ccc(C#CC5=CCCCC5)cc43)[C@@H](C(=O)Nc3nc4ccccc4s3)[C@H]12 class_label="label 1"
compound=O=C1O[C@H](c2ccccc2)[C@H](c2ccccc2)N2[C@H]1[C@@H](C(=O)NC[C@H](O)c1ccccc1)[C@]1(C(=O)Nc3ccccc31)[C@H]2c1ccc(OCCO)cc1 class_label="label 1"
compound="CC(C)c1ccc(NN2C(C(O)c3cc(C(F)(F)F)cc(C(F)(F)F)c3)C=CC3C(=O)N(c4ccccc4)C(=O)C32)cc1 (configuration not stated)" class_label="label 0"
compound=C=CCOC(=O)[C@@H]1[C@H]2C(=O)O[C@H](c3ccccc3)[C@H](c3ccccc3)N2[C@H](c2ccc(OCCOC(=O)[C@@H]3C[C@@H]4C(=O)N[C@@H](CCCCN(C)C)C(=O)N4[C@@H]3c3ccc(O)cc3)cc2)[C@@]12C(=O)Nc1ccc(I)cc12 class_label="label 0"
compound=O=C(NCc1ccc(F)cc1)[C@H]1C[C@H]2C(=O)N[C@@H](Cc3ccccc3)C(=O)N2[C@H]1c1ccc(O)cc1 class_label="label 0"
compound="O=C(C1N=C(c2ccc(OCCCO)cc2)N(c2ccccc2)O1)N1CCOCC1 (configuration not stated)" class_label="label 1"
